Provide the recorded inhibition of growth at 20 ppm for the entries that follow.
Test system: Colletotrichum lindemuthianum
protocol.summary: Colletotrichum lindemuthianum in vitro cell test
Assay type: cell-based
experimental.parameters: 144 h, 20 ppm of active ingredient, inhibition of fungal growth, 6 days incubation, liquid culture, read-out: efficacy

[[record]]
molecule = "OC1(C(F)(F)F)CC(c2ccc(-c3ccc(F)cc3)cc2)=NO1 (centres unmarked)"
meas_value = "90 to 100%"

[[record]]
molecule = "CCc1noc(-c2ccc(C3=NOC(O)(C(F)(F)F)C3)cc2)n1 (centres unmarked)"
meas_value = "90 to 100%"

[[record]]
molecule = "OC1(C(F)(F)F)CC(c2ccc(-c3cncnc3)cc2)=NO1 (centres unmarked)"
meas_value = "90 to 100%"

[[record]]
molecule = "CC(=O)c1ccc(C2=NOC(O)(C(F)(F)F)C2)cc1 (centres unmarked)"
meas_value = "90 to 100%"

[[record]]
molecule = "CC(O)c1ccc(C2=NOC(O)(C(F)(F)F)C2)cc1 (centres unmarked)"
meas_value = "80 to 89%"

[[record]]
molecule = "CON=C(C)c1ccc(C2=NOC(O)(C(F)(F)F)C2)cc1 (centres unmarked)"
meas_value = "90 to 100%"


Give inhibition of growth at 20 ppm for each of the items listed below.
1. OC1(C(F)(F)F)CC(c2ccc(C#CC3CC3)cc2)=NO1 (centres unmarked)
2. Nc1ccc(C2=NOC(O)(C(F)(F)F)C2)cc1 (centres unmarked)

90 to 100%
80 to 89%
